# assay.details: Primate PK
# Format: in vivo, monkey
# assay.context: monkey, in vivo, po, 1 mg/kg, individual monkeys, PO 1 mg/kg; read-out: AUC0-t
measurement.label: AUC0-t (ng·h/mL)
Give the value, in units of ng·h/mL, as a plain number.

GET /value?item= C[C@H]1CN(C[C@H](Cc2ccccc2)C(=O)[O-])CC[C@@]1(C)c1cccc(C(N)=O)c1.[Li+] [Example 1] &field=AUC0-t returns 103

###

# assay.details: Primate PK
# Type: in vivo, monkey
# assay.context: monkey, plasma, po, 1 mg/kg, mean of three monkeys, PO 1 mg/kg; read-out: Mean Cmax ± SD
# Description: The dose formulations were prepared on the day of dosing by dissolving 33.16 mg of test material in 60 mL of sterile water to achieve a concentration of 0.5526 mg/mL total compound (0.5 mg/mL test compound). The dosing solution was vortexed to ensure homogeneity and dissolution. […] Plasma concentrations were determined by high performance liquid chromatography with tandem mass spectrometric detection (LC/MS/MS) after protein precipitation. […]
Where a name gives a salt, the structure may show the parent alone.
measurement.label: Cmax (ng/mL)
Give the value, in units of ng/mL, as a plain number.

GET /value?item= CC1CN(CC(Cc2ccccc2)C(=O)NCC(=O)O)CCC1(C)c1cccc(C(N)=O)c1 (stereo not shown) [Example C-3, sodium salt, reference compound] &field=Cmax returns 1.75

###

# assay.details: Primate PK
# Format: in vivo, monkey
# assay.context: monkey, plasma; monkeys, single PO dose of 1 mg/kg; read-out: oral bioavailability (F)
Where a name gives a salt, the structure may show the parent alone.
measurement.label: bioavailability

GET /value?item= CC1CN(CC(Cc2ccccc2)C(=O)NCC(=O)O)CCC1(C)c1cccc(C(N)=O)c1 (stereo not shown) [Example C-3, sodium salt, reference compound] &field=bioavailability returns < 2%

###

# target.or.system: cloned human κ opioid receptor (Homo sapiens, UniProt P41145)
# Construct: expressed in transfected cells
# Sequence (P41145 whole entry): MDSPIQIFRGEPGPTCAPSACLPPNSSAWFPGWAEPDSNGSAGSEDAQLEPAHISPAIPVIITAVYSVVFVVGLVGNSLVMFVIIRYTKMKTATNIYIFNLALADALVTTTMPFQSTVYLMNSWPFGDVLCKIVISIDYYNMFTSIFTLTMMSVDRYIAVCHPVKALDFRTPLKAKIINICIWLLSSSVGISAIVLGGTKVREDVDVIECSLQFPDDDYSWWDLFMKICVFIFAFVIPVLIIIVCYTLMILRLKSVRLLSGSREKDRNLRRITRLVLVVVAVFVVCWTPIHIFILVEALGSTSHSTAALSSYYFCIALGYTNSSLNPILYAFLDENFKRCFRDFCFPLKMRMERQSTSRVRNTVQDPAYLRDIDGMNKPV
# assay.details: Receptor binding, [3H]diprenorphine displacement, kappa opioid receptor
pKi: −log10 of the molar value.
measurement.label: pKi

GET /value?item= "C[C@H]1CN(C[C@H](Cc2ccccc2)C(=O)O)CC[C@@]1(C)c1cccc(C(N)=O)c1" &field=pKi returns < 5.00

###

Each entry below carries its recorded Ki.
# target.or.system: cloned human δ opioid receptor (Homo sapiens, UniProt P41143)
# Construct: expressed in transfected cells
# Sequence (P41143 whole entry): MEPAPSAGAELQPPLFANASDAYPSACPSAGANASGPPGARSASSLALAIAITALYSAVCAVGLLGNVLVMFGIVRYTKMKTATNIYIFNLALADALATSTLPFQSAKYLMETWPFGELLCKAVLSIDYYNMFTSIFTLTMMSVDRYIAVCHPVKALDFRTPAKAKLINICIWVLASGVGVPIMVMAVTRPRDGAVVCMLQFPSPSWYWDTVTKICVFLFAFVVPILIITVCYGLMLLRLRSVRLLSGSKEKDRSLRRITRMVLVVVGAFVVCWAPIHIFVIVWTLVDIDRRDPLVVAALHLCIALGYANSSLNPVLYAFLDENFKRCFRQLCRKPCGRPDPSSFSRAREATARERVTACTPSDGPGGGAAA
# assay.details: Receptor binding, [3H]diprenorphine displacement, delta opioid receptor
# assay.context: DOR Ki
Where a name gives a salt, the structure may show the parent alone.
Give the value, in units of nM, as a plain number.

>  <molecule>
CC1CN(CC(Cc2ccccc2)C(=O)NCC(=O)O)CCC1(C)c1cccc(C(N)=O)c1 (stereo not shown) [Example C-3, sodium salt, reference compound]

>  <Ki (nM)>
98

$$$$
>  <molecule>
C[C@H]1CN(C[C@H](Cc2ccccc2)C(=O)O)CC[C@@]1(C)c1cccc(C(N)=O)c1.O=C(O)C(F)(F)F [Example 3, trifluoroacetate salt]

>  <Ki (nM)>
397

$$$$
>  <molecule>
C[C@H]1CN(C[C@H](Cc2ccccc2)C(=O)O)CC[C@@]1(C)c1cccc(C(N)=O)c1 [Example 4]

>  <Ki (nM)>
460

$$$$
>  <molecule>
C[C@H]1CN(C[C@H](Cc2ccccc2)C(=O)[O-])CC[C@@]1(C)c1cccc(C(N)=O)c1.[Na+] [Example 2, sodium salt]

>  <Ki (nM)>
308

$$$$
>  <molecule>
C[C@H]1CN(C[C@H](Cc2ccccc2)C(=O)O)CC[C@@]1(C)c1cccc(C(N)=O)c1 [Example 5]

>  <Ki (nM)>
310

$$$$

GET /value?item= C[C@H]1CN(C[C@H](Cc2ccccc2)C(=O)O)CC[C@@]1(C)c1cccc(C(N)=O)c1 [Example 6] &field=Ki returns 527

GET /value?item= C[C@H]1CN(C[C@H](Cc2ccccc2)C(=O)[O-])CC[C@@]1(C)c1cccc(C(N)=O)c1.[Li+] [Example 1, lithium salt] &field=Ki returns 340
